- tested_on: Heat shock protein HSP 90-alpha (Homo sapiens)
- Type: functional, organism-based
Activity calls are given as the source filed them.
parameter_measured: AC50

Use the examples below as a reference point.
>  <molecule>
CC1=C/C(=N\OS(=O)(=O)c2ccccc2)C(C)=CC1=O

>  <value>
554 nM (active)

$$$$
>  <molecule>
O=[N+]([O-])/C=C/c1cn(Cc2ccccc2)c2ccccc12

>  <value>
6430 nM (active)

$$$$
>  <molecule>
CCCCCCCCCCCCCCCC[n+]1ccc(C=NO)cc1

>  <value>
3100 nM (active)

$$$$

State the recorded AC50 for this entry: CC(N/N=C(\S)N1CCN(c2ccccn2)CC1)c1nccc2ccccc12 (stereo unspecified)
2580 nM (active)

State the recorded AC50 for this entry: C[C@H]1C[C@@H](C)C(=O)[C@@H]([C@H](O)CC2CC(=O)NC(=O)C2)C1
< 195 nM (active)

State the recorded AC50 for this entry: O=C1CC(N2CCCCCC2)C(=O)N1c1ccc2c(c1)OCO2 (stereo unspecified)
4790 nM (active)
